Listed here: items and their measured pIC50.
Target: GSK3b (GST-full length GSK3b) (Homo sapiens (Human))
Sequence (P49841 whole entry): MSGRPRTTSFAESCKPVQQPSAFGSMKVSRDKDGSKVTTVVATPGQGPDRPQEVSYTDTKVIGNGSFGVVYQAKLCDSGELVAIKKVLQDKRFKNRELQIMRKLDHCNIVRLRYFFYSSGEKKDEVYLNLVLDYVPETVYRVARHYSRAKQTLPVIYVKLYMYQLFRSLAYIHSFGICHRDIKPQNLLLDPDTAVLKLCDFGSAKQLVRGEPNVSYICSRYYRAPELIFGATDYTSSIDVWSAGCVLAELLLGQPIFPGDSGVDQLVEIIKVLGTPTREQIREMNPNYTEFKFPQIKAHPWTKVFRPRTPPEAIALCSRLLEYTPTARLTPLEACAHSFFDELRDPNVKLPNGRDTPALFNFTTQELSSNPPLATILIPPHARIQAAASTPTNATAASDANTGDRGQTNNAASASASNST
Assay: GSK3b TR-FRET kinase assay
Type: biochemical
Conditions: 1 nM GSK3b, 2 μM ATP, 30 minute preincubation; read-out: GSK3-B TR-FRET BIOCHEMICAL (TR-FRET); IC50
Procedure: TR-FRET Assay: The assay was performed in a white, 384 well, low volume, flat bottom plate (Grenier). After a 30 minute preincubation in assay buffer with the indicated concentration of compound, the kinase activity was initiated by the addition of the substrates. […] After 60 min at room temperature the plate was read on Envision plate reader using Ex: 340 nm, Em: 615 nm and […]. The normalized 665/615 Signal ratio versus log compound concentration was analyzed by XLFIT to yield IC50 values.
pIC50: −log10 of the molar value.

Reference set (3 entries):
- compound: "CC[C@]1(c2cccc(C(F)(F)F)c2)C2=C(Nc3n[nH]cc31)[C@H](C)NC2=O [Compound 945381]"
  reported.endpoint: "pIC50"
  readout.value: "< 5.30"
- compound: "CCC(C)C(=O)N1CC2(C1)CC1(CO2)C2=C(CC(C)(C)CC2=O)Nc2n[nH]cc21 (stereo not drawn) [Compound 947270]"
  reported.endpoint: "pIC50"
  readout.value: "6.00 to 7.00"
- compound: "CCC1(c2cccc(-c3cnn(C)c3)c2)C2=C(CC(C)(C)NC2=O)Nc2n[nH]cc21 (stereo not drawn) [Compound 943912]"
  reported.endpoint: "pIC50"
  readout.value: "5.30 to 6.00"

Exercise: Using the record for CC1CCCC1C(=O)N1CC2(C1)CC1(CO2)C2=C(CC(C)(C)CC2=O)Nc2n[nH]cc21 (stereo not drawn) [Compound 947274] , report its pIC50.
Key: 6.00 to 7.00

Exercise: Given CC1(C)CC(=O)C2=C(C1)Nc1n[nH]cc1[C@]21CCN(S(=O)(=O)c2cccc(F)c2)C1 [Compound 951861] , state its recorded pIC50.
Key: ≥ 7.00

Exercise: pIC50 for CC1(C)CC(=O)C2=C(C1)Nc1n[nH]cc1C21COC2(CN(C(=O)C3CCC3)C2)C1 (stereo not drawn) [Compound 947288] ?
Key: ≥ 7.00

Exercise: What value of measured pIC50 is listed for CCC1(c2cccc(C(F)(F)F)c2)C2=C(CN(C)C2=O)Nc2n[nH]cc21 (stereo not drawn) [Compound 945367] ?
Key: 5.30 to 6.00

Exercise: Quick check: pIC50 of CC1(C)CC(=O)C2=C(C1)Nc1n[nH]cc1C21COC2(CN(C(=O)C3CCC(F)C3)C2)C1 (stereo not drawn) [Compound 947486] ?
Key: ≥ 7.00

Exercise: Please report the recorded pIC50 for CC1(C)CC(=O)C2=C(C1)Nc1n[nH]cc1[C@]21CCOC2(CCC2)C1 [Compound 897756] .
Key: 6.00 to 7.00

Exercise: Query (compound): CCC1(c2cccc(S(=O)(=O)C(C)C)c2)C2=C(CC(C)(C)NC2=O)Nc2n[nH]cc21 (stereo not drawn) [Compound 945464] ; field requested: pIC50
Key: ≥ 7.00

Exercise: For CC1(C)CC(=O)C2=C(C1)Nc1n[nH]cc1C21COC2(CN(C(=O)C3CCCCCC3)C2)C1 (stereo not drawn) [Compound 947308] , what is its reported pIC50?
Key: 6.00 to 7.00

Exercise: // pIC50 lookup, key: CC(C)(C)CC(=O)N1CC2(C1)CC1(CO2)C2=C(CC(C)(C)CC2=O)Nc2n[nH]cc21 (stereo not drawn) [Compound 947301]
Key: 5.30 to 6.00

Exercise: Entry CCC1(c2cccc(-c3cnn(C)c3C)c2)C2=C(CC(C)(C)NC2=O)Nc2n[nH]c(C)c21 (stereo not drawn) [Compound 944028] : reported pIC50 = ?
Key: 6.00 to 7.00

Exercise: Need pIC50, item CC[C@]1(c2cccc(C(F)(F)F)c2)C2=C(Nc3n[nH]cc31)[C@@H](C)NC2=O [Compound 945380]
Key: < 5.30

Exercise: Look up pIC50 for this compound: CC1(C)CC(=O)C2=C(C1)Nc1n[nH]cc1[C@]21COC2(CN(S(C)(=O)=O)C2)C1 [Compound 926823]
Key: 5.30 to 6.00

Exercise: What measured pIC50 goes with COc1cccc(S(=O)(=O)N2CCC3(CC2)C2=C(CC(C)(C)CC2=O)Nc2n[nH]cc23)c1 [Compound 943962] ?
Key: 6.00 to 7.00

Exercise: If you can, please state the reported pIC50 value of Cc1ccc(C(=O)N2CC3(C2)CC2(CO3)C3=C(CC(C)(C)CC3=O)Nc3n[nH]cc32)c(C)c1 (stereo not drawn) [Compound 947294] .
Key: 6.00 to 7.00

Exercise: Bench note: what pIC50 did CC1(C)CC(=O)C2=C(C1)Nc1n[nH]cc1C21CCC2(CCC(=O)N2C(=O)OC(C)(C)C)CC1 (stereo not drawn) [Compound 912217] show?
Key: < 5.30
